# Lookup of reported melting point keyed by entry

Request: Which melting point is reported for this molecule? `Cc1ccc(S(=O)(=O)N2C[C@H]3[C@@H](C2)OC(=O)N[C@H]3c2ccc(Br)cc2)cc1`
Result: 210 to 213 °C

Request: Try this molecule too: CCOC(=O)C[C@@H]1[C@@H](C(NC(=O)OC(C)(C)C)c2ccc(F)cc2)CN(S(=O)(=O)c2ccc(C)cc2)[C@@H]1C(=O)OCC (stereo partly shown)
Result: 148 to 150 °C

Request: Please do the same for `Cc1ccc(S(=O)(=O)N2C[C@H]([C@@H](NC(=O)OC(C)(C)C)c3ccc(C(F)(F)F)cc3)[C@H](O)C2)cc1` as well.
Result: 202 to 204 °C

Request: Now this one: `Cc1ccc([C@H](NC(=O)OC(C)(C)C)[C@H]2CN(S(=O)(=O)c3ccc(C)cc3)C[C@H]2O)cc1`
Result: 187 to 190 °C

Request: Please give the result for `CSc1ccc([C@H](NC(=O)OC(C)(C)C)[C@H]2CN(S(=O)(=O)c3ccc(C)cc3)C[C@H]2O)cc1` too.
Result: 209 to 211 °C

Request: Subsequent entry: `Cc1ccc(S(=O)(=O)N2C[C@H]3[C@@H](C2)OC(=O)N[C@H]3c2ccc(F)cc2)cc1`
Result: 207 to 211 °C

Request: Please do the same for CCOC(=O)C[C@@H]1[C@@H](C(NC(=O)OC(C)(C)C)c2ccc(C)cc2)CN(S(=O)(=O)c2ccc(C)cc2)[C@@H]1C(=O)OCC (stereo partly shown) as well.
Result: 177 to 178 °C

Request: Now consider `Cc1ccc(S(=O)(=O)N2C[C@H]3[C@@H](C2)OC(=O)N[C@H]3c2ccc3ccccc3c2)cc1` and answer again.
Result: 153 to 156 °C

Request: Then `Cc1ccc(S(=O)(=O)N2C[C@H]([C@@H](NC(=O)OC(C)(C)C)c3ccco3)[C@H](O)C2)cc1` ?
Result: 136 to 139 °C

Request: Next molecule: CCOC(=O)C[C@@H]1[C@@H](C(NC(=O)OC(C)(C)C)c2ccc(Br)cc2)CN(S(=O)(=O)c2ccc(C)cc2)[C@@H]1C(=O)OCC (stereo partly shown)
Result: 161 to 163 °C
